# Target System: Disintegrin and metalloproteinase domain-containing protein 17 (Homo sapiens, UniProt P78536)
# Sequence (P78536 whole entry, the tested form may be a part): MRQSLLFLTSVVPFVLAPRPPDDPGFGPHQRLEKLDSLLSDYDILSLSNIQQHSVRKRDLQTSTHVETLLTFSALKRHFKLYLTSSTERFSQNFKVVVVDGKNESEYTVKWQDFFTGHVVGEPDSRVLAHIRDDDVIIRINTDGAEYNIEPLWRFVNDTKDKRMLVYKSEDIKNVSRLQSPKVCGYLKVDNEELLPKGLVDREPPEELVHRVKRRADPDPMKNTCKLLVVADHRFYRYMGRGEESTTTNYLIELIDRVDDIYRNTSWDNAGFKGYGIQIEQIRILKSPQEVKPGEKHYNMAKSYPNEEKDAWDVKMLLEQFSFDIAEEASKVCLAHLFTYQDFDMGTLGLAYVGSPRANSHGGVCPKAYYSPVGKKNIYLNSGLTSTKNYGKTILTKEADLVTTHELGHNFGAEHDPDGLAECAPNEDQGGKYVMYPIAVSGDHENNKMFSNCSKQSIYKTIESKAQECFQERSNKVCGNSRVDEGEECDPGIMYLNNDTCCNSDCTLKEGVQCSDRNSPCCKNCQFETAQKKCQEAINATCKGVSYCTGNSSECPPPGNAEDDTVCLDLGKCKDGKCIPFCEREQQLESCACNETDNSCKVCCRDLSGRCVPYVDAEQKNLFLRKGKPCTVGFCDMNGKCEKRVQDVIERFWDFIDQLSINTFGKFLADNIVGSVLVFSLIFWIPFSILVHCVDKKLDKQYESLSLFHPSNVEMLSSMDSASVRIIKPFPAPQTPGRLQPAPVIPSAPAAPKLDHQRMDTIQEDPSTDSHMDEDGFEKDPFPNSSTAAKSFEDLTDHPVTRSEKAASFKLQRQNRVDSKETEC
# Assay Text: Inhibition of recombinant human ADAM17 after 30 mins using FS-6 as substrate by fluorometry
IC50 strictly less than 100 µM = 1.0. Otherwise 0.0.

chemical_structure=CC(C)ON([C@@H](C(=O)NO)C(C)C)S(=O)(=O)c1ccc(-c2ccccc2)cc1 label=1.0
chemical_structure=COc1ccc(S(=O)(=O)c2ccccc2CC(=O)NO)cc1 label=1.0
chemical_structure=O=C(N[C@H](CCN1C(=O)c2ccccc2C1=O)C(=O)NO)c1ccc(Oc2ccccc2)cc1 label=1.0
chemical_structure=CC(C)ON(CC(=O)NO)S(=O)(=O)c1ccc(Br)s1 label=0.0
chemical_structure=O=C(Cc1ccccc1S(=O)(=O)c1ccc(OCCCN2C(=O)c3ccccc3C2=O)cc1)NO label=0.0

###

Each entry below lists one item and its recorded log10(IC50) value.
# Target System: Matrix metalloproteinase-9 (Homo sapiens)
# Sequence (P14780 whole entry): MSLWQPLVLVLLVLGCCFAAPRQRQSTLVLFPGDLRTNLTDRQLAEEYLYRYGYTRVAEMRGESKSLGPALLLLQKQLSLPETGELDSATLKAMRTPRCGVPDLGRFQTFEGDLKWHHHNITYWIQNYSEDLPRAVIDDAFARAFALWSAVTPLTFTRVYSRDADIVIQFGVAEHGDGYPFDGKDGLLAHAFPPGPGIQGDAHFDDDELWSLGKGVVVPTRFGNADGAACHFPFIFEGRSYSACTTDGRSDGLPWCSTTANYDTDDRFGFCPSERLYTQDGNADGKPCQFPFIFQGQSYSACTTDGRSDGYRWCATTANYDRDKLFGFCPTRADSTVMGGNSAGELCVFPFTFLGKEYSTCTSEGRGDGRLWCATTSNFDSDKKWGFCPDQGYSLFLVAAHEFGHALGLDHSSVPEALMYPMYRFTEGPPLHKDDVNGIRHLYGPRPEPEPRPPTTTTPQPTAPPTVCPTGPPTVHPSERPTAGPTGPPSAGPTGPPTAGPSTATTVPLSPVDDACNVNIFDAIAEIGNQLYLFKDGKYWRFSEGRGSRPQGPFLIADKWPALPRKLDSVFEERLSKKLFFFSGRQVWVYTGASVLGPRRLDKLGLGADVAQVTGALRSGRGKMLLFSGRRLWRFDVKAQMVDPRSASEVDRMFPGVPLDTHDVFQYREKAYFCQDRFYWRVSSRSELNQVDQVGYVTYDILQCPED
# Assay Text: Inhibition of recombinant human MMP9 after 2 hrs using FS-6 as substrate by fluorometry
Quantity Name: log10(IC50) (log10 of the value in µM)

chemical_structure=O=C(N[C@H](CCN1C(=O)c2ccccc2C1=O)C(=O)NO)c1ccc(Oc2ccccc2)cc1 recorded_value=0.91
chemical_structure=CC(C)CN([C@@H](C(=O)NO)C(C)C)S(=O)(=O)c1ccc(-c2ccccc2)cc1 recorded_value=-2.28
chemical_structure=O=C(CCNS(=O)(=O)c1ccc(-c2ccccc2)cc1)NO recorded_value=1.41
chemical_structure=CC(C)ON(CC(=O)NO)S(=O)(=O)c1ccc(Br)s1 recorded_value=0.79
chemical_structure=COc1ccc(S(=O)(=O)N(CC(=O)NO)OC23CC4CC(CC(C4)C2)C3)cc1 recorded_value=0.30

###

Each entry below lists one item and its recorded pIC50 value.
# Target System: UniProt P00800
# Sequence (P00800 233-548 limits assumed): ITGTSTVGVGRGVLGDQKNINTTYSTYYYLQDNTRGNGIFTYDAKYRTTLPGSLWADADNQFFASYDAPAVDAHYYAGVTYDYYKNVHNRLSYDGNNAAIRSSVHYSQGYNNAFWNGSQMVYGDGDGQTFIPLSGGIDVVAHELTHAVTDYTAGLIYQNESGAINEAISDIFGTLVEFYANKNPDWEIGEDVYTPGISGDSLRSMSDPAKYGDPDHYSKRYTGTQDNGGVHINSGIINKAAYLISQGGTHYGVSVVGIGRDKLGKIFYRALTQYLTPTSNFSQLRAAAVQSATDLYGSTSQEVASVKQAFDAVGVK
# Assay Text: Inhibition of Bacillus thermoproteolyticus thermolysin pretreated with compound for 1 hr followed by the addition of 3.33 uM bradykinin like substrate by spectrofluorometry assay
pIC50: −log10 of the molar value.
Quantity Name: pIC50

molecule=CC(C)ON(CC(=O)NO)S(=O)(=O)c1ccc(Br)s1 recorded_value=4.54
molecule="CCCCC(NOCc1ccccc1)C(=O)NO (stereo not given)" recorded_value=5.02
molecule=O=C(CCNS(=O)(=O)c1ccc(-c2ccccc2)cc1)NO recorded_value=4.52
molecule=COc1ccc(S(=O)(=O)c2ccccc2CC(=O)NO)cc1 recorded_value=3.84
molecule=O=C(Cc1ccccc1S(=O)(=O)c1ccc(OCCCN2C(=O)c3ccccc3C2=O)cc1)NO recorded_value=3.88

###

# Target System: 72 kDa type IV collagenase (Homo sapiens, UniProt P08253)
# Sequence (P08253 whole entry): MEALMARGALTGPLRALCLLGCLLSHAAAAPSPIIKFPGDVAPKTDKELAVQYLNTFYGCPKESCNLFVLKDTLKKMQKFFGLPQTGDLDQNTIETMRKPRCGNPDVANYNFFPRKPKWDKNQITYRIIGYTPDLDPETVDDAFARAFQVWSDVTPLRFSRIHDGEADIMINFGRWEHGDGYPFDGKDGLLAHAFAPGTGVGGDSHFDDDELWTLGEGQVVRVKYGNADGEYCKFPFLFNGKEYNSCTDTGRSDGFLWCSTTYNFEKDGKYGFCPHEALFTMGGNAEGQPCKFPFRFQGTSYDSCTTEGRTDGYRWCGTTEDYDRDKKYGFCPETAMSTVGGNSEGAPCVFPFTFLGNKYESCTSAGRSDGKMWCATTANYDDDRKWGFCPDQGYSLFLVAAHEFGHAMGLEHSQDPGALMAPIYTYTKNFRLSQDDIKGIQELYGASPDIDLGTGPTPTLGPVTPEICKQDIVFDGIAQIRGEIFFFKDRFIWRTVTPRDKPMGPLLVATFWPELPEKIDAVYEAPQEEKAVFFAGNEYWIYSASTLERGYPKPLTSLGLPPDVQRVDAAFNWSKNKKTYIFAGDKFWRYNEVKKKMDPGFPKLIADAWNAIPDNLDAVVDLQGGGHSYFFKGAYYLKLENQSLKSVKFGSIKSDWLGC
# Assay Text: Inhibition of recombinant human MMP2 after 2 hrs using FS-6 as substrate by fluorometry
pIC50: −log10 of the molar value.
Each entry below lists one item and its recorded pIC50 value.
Quantity Name: pIC50

chemical_structure=COc1ccc(S(=O)(=O)N(CC(=O)NO)OC23CC4CC(CC(C4)C2)C3)cc1 reading_qualifier== recorded_value=5.70
chemical_structure=O=C(CCNS(=O)(=O)c1ccc(-c2ccccc2)cc1)NO reading_qualifier== recorded_value=5.62
chemical_structure=O=C(Cc1ccccc1S(=O)(=O)c1ccc(OCCCN2C(=O)c3ccccc3C2=O)cc1)NO reading_qualifier=< recorded_value=5.00
chemical_structure=O=C(N[C@H](CCN1C(=O)c2ccccc2C1=O)C(=O)NO)c1ccc(Oc2ccccc2)cc1 reading_qualifier== recorded_value=5.05
chemical_structure=CC(C)ON(CC(=O)NO)S(=O)(=O)c1ccc(Br)s1 reading_qualifier== recorded_value=5.96
chemical_structure=CC(C)CN([C@@H](C(=O)NO)C(C)C)S(=O)(=O)c1ccc(-c2ccccc2)cc1 reading_qualifier== recorded_value=8.52
